Where do these numbers come from? They come from patent US9309242B2.

IC50 by entry:
target: FGFR3 (h) (Homo sapiens, UniProt P22607); assay: FGFR3 (enzymatic assay), TR-FRET; assay type: biochemical; conditions: average values if tested multiple times, read-out: FGFR 3 pIC50 (converted)
Sequence (P22607 23-806): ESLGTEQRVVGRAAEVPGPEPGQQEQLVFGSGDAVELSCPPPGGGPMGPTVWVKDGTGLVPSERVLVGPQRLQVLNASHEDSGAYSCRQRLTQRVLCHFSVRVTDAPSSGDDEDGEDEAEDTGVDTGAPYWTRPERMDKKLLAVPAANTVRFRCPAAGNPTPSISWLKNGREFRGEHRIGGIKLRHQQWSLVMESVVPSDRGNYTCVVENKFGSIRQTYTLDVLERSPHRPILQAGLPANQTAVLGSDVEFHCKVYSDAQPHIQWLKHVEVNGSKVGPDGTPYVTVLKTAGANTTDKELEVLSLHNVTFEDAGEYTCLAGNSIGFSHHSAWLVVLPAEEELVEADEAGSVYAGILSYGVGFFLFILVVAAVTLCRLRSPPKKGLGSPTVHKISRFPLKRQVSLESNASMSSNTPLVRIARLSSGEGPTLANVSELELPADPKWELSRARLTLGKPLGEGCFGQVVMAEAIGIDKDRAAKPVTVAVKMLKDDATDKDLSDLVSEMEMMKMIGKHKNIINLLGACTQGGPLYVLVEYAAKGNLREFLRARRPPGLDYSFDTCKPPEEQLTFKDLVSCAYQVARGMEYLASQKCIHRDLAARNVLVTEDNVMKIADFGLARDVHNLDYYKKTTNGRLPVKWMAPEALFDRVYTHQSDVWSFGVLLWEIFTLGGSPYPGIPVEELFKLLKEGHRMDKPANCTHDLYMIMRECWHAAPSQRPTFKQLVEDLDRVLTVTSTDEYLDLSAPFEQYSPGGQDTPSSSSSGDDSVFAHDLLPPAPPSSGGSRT
Give the value, in units of nM, as a plain number.

A selection of reference data follows.
| compound | IC50 (nM) |
| --- | --- |
| COc1cc(OC)c(F)c(N(Cc2ncc[nH]2)c2ccc3ncc(-c4cnn(C)c4)nc3n2)c1F | 2.51 |
| COc1cc(OC)c(F)c(N(CC(O)COC(C)C)c2ccc3ncc(-c4cnn(C)c4)nc3n2)c1 (single isomer, unassigned) [Compound 75] | 1.95 |
| COc1cc(OC)cc(N(CCO)c2ccc3ncc(-c4cnn(C)c4)nc3n2)c1 | 0.794 |

Now consider a different compound.
# input Return reported IC50 for target or system FGFR3 (h) (Homo sapiens, UniProt P22607), item `COc1cc(/N=c2\ccc3ncc(-c4cnn(C)c4)nc3n2CCCO)cc(OC)c1` .
# output 0.316
